These measurements were taken from the supplement of paper PMC6555819.

test system: RXRa homodimer (NR concentration 180 nM); assay: PBM binding z-score (relative to random genomic background probes); higher = stronger binding; sequences stand for … in GC…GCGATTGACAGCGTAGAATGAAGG
Bucketed by reported PBM binding z-score, buckets being low: < 0.6; moderate: ≥ 0.6 and < 2; high: ≥ 2

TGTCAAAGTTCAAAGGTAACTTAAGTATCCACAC | high
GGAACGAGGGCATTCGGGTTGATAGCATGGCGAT | moderate
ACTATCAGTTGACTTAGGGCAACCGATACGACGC | low
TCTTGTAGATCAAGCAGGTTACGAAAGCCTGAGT | moderate
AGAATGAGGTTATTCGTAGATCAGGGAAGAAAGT | high
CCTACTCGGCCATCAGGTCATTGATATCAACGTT | moderate

Qu. Quick check: band for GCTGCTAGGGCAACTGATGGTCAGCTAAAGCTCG
Ans. low

Qu. Hello team, could you let me know which band the following sequence falls into: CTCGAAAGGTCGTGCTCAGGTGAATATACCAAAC
Ans. high

Qu. Sort into band: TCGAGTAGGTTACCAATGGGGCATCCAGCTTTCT
Ans. moderate

Qu. Consider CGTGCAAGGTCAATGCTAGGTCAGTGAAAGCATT . To which PBM binding z-score class does it belong?
Ans. high

Qu. Hey, which category is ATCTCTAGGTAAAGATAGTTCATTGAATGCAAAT in, do you know?
Ans. moderate

Qu. Band for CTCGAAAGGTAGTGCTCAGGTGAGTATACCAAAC ?
Ans. low

====

tested on: LXRb homodimer (NR concentration 270 nM); experiment: PBM binding z-score (relative to random genomic background probes); higher = stronger binding; sequences stand for … in GC…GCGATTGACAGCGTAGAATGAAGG
Each entry falls into one class according to its PBM binding z-score; the ranges are bottom = under -0.3, middle = from -0.3 up to 0.6, top = 0.6 and over

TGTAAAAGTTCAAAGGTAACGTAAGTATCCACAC | top
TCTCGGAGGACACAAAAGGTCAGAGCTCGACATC | middle
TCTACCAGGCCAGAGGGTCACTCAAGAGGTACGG | bottom

Qu. Consider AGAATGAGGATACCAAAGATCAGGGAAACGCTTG . To which PBM binding z-score class does it belong?
Ans. bottom

Qu. Could you place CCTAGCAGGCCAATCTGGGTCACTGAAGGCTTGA in its proper category? Many thanks.
Ans. bottom

Qu. Bin? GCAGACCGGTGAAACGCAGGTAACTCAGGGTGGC
Ans. bottom

Qu. Lab note: which band did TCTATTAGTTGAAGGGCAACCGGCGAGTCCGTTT land in?
Ans. middle

Qu. Categorize the following entry: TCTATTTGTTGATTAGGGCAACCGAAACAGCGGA
Ans. top

Qu. Band of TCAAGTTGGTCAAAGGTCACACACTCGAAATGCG ?
Ans. top

Qu. Entry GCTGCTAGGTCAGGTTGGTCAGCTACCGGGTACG belongs to which category?
Ans. bottom

====

test system: RARb:RXRa (NR concentration 270 nM, RXRa partner concentration 90 nM); test: PBM binding z-score (relative to random genomic background probes); higher = stronger binding; sequences stand for … in GC…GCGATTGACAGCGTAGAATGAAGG
This listing pairs sequences with measured PBM binding z-score.
Please reply with the value in numeric form only.

Worked set:
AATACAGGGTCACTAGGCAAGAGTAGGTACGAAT | 4.13
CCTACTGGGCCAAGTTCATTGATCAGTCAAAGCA | 1.88
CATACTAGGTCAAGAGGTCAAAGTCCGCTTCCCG | 5.67
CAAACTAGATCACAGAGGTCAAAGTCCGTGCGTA | 4.05
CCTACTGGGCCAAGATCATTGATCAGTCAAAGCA | -0.341

Qu. PBM binding z-score lookup needed for ACTATTAGTTGGGACGAGGGCAACCGATAGGTTG , thanks.
Ans. 1.03

Qu. Return reported PBM binding z-score; argument: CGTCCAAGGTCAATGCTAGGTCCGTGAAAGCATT
Ans. 4.91

Qu. Report PBM binding z-score for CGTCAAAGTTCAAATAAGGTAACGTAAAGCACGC please.
Ans. 5.08

Qu. Can you look up the measured PBM binding z-score of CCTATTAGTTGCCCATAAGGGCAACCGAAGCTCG for me?
Ans. 1.29

Qu. Any idea what its PBM binding z-score is? The sequence is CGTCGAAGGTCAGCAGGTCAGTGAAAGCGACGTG
Ans. 5.24

Qu. For the sequence shown here, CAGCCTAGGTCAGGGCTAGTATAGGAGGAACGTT , give the reported PBM binding z-score.
Ans. 3.41

Qu. For the sequence shown here, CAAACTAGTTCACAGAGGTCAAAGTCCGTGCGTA , give the reported PBM binding z-score.
Ans. 4.46

====

test system: RARa homodimer (NR concentration 270 nM); assay: PBM binding z-score (relative to random genomic background probes); higher = stronger binding; sequences stand for … in GC…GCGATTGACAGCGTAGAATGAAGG
OBSERVATION_TYPE: PBM binding z-score
Returns: the value as a bare number; no unit string appended.

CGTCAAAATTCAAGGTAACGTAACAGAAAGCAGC | 0.932
GATACAGGGTCAGCTAGGGGCCAGAGTATGGAAA | 0.262
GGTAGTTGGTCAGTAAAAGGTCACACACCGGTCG | 3
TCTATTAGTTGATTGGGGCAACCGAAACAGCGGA | 1.31
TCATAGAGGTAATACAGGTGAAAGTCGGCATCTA | 0.214

Qu. Item under review: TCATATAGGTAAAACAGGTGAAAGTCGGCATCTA . Reported PBM binding z-score?
Ans. 1.05

Qu. Requested read-out: PBM binding z-score. Entry: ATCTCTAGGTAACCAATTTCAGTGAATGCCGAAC
Ans. 0.959

Qu. Name the recorded PBM binding z-score for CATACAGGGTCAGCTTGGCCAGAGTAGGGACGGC .
Ans. 0.544

Qu. Which PBM binding z-score is listed for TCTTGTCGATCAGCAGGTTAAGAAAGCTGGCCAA ?
Ans. -0.254

Qu. Quick check: PBM binding z-score of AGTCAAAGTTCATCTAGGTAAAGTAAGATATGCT ?
Ans. 2.12

Qu. What does the data say about its PBM binding z-score? Entry: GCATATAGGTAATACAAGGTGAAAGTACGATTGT
Ans. 0.78

Qu. Would you kindly share the measured PBM binding z-score for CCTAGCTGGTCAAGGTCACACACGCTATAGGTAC ?
Ans. 2.61

Qu. Requested read-out: PBM binding z-score. Entry: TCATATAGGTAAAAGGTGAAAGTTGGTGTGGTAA
Ans. 2.02

Qu. // PBM binding z-score lookup, key: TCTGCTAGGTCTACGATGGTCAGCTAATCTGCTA
Ans. -0.904

====

system: RXRa homodimer (NR concentration 180 nM); test: PBM binding z-score (relative to random genomic background probes); higher = stronger binding; sequences stand for … in GC…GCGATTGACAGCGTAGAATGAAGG
The following sequences are listed with their measured PBM binding z-score values.
Quick one: just the number, no unit, thanks!

Below, 3 sequences whose answers are already recorded.
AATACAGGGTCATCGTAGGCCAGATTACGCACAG | 6.58
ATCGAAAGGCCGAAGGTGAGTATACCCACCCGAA | 0.581
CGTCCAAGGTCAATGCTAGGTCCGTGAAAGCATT | 4.55

Qu. What value of PBM binding z-score has been reported for the following sequence? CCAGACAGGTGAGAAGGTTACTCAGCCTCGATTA
Ans. 1

Qu. Any idea what its PBM binding z-score is? The sequence is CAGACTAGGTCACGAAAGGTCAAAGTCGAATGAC
Ans. 8.34

Qu. Returns the measured PBM binding z-score for the input sequence. Input: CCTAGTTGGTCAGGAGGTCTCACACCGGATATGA
Ans. 0.298

Qu. Please report the recorded PBM binding z-score for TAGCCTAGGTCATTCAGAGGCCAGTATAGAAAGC .
Ans. 2.87

Qu. Quick check: PBM binding z-score of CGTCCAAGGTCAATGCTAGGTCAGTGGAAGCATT ?
Ans. 4.86

====

system: THRa:RXRa (NR concentration 90 nM, RXRa partner concentration 90 nM); assay: PBM binding z-score (relative to random genomic background probes); higher = stronger binding; sequences stand for … in GC…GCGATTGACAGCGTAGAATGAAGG
Decide by PBM binding z-score: equal to or exceeding 3 means Yes, less means No.

A selection of reference data follows.
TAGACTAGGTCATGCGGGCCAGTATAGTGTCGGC | No
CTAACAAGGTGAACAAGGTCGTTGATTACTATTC | Yes
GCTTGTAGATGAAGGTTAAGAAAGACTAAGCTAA | No
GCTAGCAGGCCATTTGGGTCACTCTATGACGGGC | No
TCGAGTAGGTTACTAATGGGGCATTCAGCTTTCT | No

Qu. Is PBM binding z-score at least 3? Consider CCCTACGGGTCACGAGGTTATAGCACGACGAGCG
Ans. Yes

Qu. Textbook exercise: given the entry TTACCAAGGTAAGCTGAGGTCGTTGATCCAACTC , state whether its PBM binding z-score is greater than or equal to 3.
Ans. Yes

Qu. Tell me whether PBM binding z-score is at least 3 here: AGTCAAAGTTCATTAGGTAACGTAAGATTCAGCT
Ans. No

Qu. # bool: PBM binding z-score of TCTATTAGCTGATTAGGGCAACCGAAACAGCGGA >= 3
Ans. No

Qu. Quick check: does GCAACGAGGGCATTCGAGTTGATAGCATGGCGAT have PBM binding z-score greater than or equal to 3?
Ans. Yes

Qu. Please tell me: is the sequence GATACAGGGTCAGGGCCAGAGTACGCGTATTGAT at or over 3 in terms of PBM binding z-score?
Ans. No

Qu. Would you say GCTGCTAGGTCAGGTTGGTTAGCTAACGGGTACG shows PBM binding z-score at minimum 3?
Ans. No
